// cross-source set; read-out = Kd; system = Epidermal growth factor receptor (Homo sapiens, UniProt P00533)
recordedMetric: Kd

>>> valuemeasured("Oc1ccc(-c2cc3c(Nc4ccc(F)cc4)ncnc3[nH]2)cc1")
"< 100 nM"
>>> valuemeasured("Oc1ccc(-c2cc3c(NCc4ccccc4)ncnc3[nH]2)cc1")
"< 100 nM"
>>> valuemeasured("N#Cc1cnc2cc(OC[C@H](O)CO)c(NC(=O)C[C@H]3CCSS3)cc2c1Nc1ccc(OCc2cccc(F)c2)c(Cl)c1")
"1 to 99 nM"
>>> valuemeasured("COc1cccc(-c2cc3c(Nc4ccccc4)ncnc3[nH]2)c1")
"< 100 nM"
>>> valuemeasured("C=CC(=O)N[C@@H]1CN(c2nc(Nc3cn(CCOCCON(C)C(=O)N4N=C(c5cc(F)ccc5F)S[C@@]4(CCCN)c4ccccc4)nc3OC)c3ncn(C)c3n2)C[C@H]1F")
"< 50 nM"
>>> valuemeasured("COc1cccc(-c2cc3c(Sc4ccccc4)ncnc3[nH]2)c1")
"< 100 nM"
>>> valuemeasured("CC(Nc1ncnc2[nH]c(-c3ccc(O)cc3)cc12)c1ccccc1 (centres unmarked)")
"< 100 nM"
>>> valuemeasured("COc1ccc(-c2cc3c(N[C@H](C)c4ccccc4)ncnc3[nH]2)cc1")
"< 100 nM"

---

// cross-source set; read-out = pKd; system = Epidermal growth factor receptor (Homo sapiens, UniProt P00533)
pKd: −log10 of the molar value.
recordedMetric: pKd

>>> valuemeasured("c1ccc(Sc2ncnc3c2[nH]c2ccccc23)cc1")
"> 7.00"
>>> valuemeasured("COc1cccc(Sc2ncnc3oc(-c4ccccc4)c(-c4ccccc4)c23)c1")
"6.00 to 7.00"
>>> valuemeasured("C1=C(Nc2ncnc3[nH]ccc23)NNC1")
4.74
>>> valuemeasured("C=C(COc1cc(Cl)cc(NC(=O)NCc2ccc3c(c2)CN(C2CCC(=O)NC2=O)C3=O)c1)C(=O)N1C[C@H](COc2nc(Nc3cnn(C)c3)nc3[nH]cc(Cl)c23)[C@@H](OC)C1 (stereo partly shown)")
"< 5.60"
>>> valuemeasured("COc1ccc(-c2cc3c(Nc4ccc(Cl)c(C(F)(F)F)c4)ncnc3[nH]2)cc1")
"> 7.00"
>>> valuemeasured("Clc1ccc(Sc2ncnc3[nH]ccc23)cc1Cl")
"6.00 to 7.00"
>>> valuemeasured("C=CC(=O)Nc1cc(Nc2nccc(-c3cn(C)c4ccccc34)n2)c(OC)cc1N(C)CCN(C)CCNC(=O)c1ccc(Nc2ncc3c(n2)N(C2CCCC2)[C@H](CC)C(=O)N3C)c(OC)c1")
"< 5.60"

---

// cross-source set; read-out = Kd; system = Epidermal growth factor receptor (Homo sapiens, UniProt P00533)
recordedMetric: Kd

>>> valuemeasured("COc1cccc(-c2cc3c(Nc4cccc(F)c4)ncnc3[nH]2)c1")
"< 100 nM"
>>> valuemeasured("COc1cccc(-c2cc3c(Nc4cc(C)cc(C)c4)ncnc3[nH]2)c1")
"< 100 nM"
>>> valuemeasured("COc1ccc(-c2cc3c(OCc4ccccc4)ncnc3[nH]2)cc1")
"100 to 1000 nM"
>>> valuemeasured("Clc1cccc(Sc2ncnc3c2[nH]c2ccccc23)c1")
"< 100 nM"
>>> valuemeasured("CC(=O)SCC(CSC(C)=O)C(=O)Nc1cc2c(Nc3ccc(OCc4cccc(F)c4)c(Cl)c3)c(C#N)cnc2cc1OC[C@H](O)CO")
"1 to 99 nM"
>>> valuemeasured("COc1cccc(Sc2ncnc3[nH]c(-c4ccc(O)cc4)cc23)c1")
"100 to 1000 nM"
>>> valuemeasured("CC[C@@H]1C(=O)N(C)c2cnc(Nc3ccc(C(=O)NCCCN4CCN(CCCN(C)C/C=C/C(=O)N[C@@H]5CN(c6nc(Nc7cn(C)nc7OC)c7ncn(C)c7n6)C[C@H]5F)CC4)cc3OC)nc2N1C1CCCC1")
"500 to 2500 nM"
>>> valuemeasured("Oc1ccc(-c2cc3c(Sc4ccc(F)cc4)ncnc3[nH]2)cc1")
"< 100 nM"
>>> valuemeasured("C=CC(=O)Nc1cc(Nc2nccc(-c3cn(C)c4ccccc34)n2)c(OC)cc1N(C)CCN(C)CCCCCCCCNS(=O)(=O)c1ccc(Nc2ncc(Br)c(Nc3cccc(F)c3C(N)=O)n2)cc1")
"< 50 nM"
>>> valuemeasured("COc1cccc(-c2cc3c(Nc4ccc(Cl)cc4)ncnc3[nH]2)c1")
"< 100 nM"
>>> valuemeasured("COc1ccc(-c2cc3c(Sc4cccc(OC)c4)ncnc3[nH]2)cc1")
"100 to 1000 nM"
>>> valuemeasured("CCc1ccccc1Sc1ncnc2[nH]c(-c3cccc(OC)c3)cc12")
"< 100 nM"
>>> valuemeasured("COC(=O)c1cccc(Nc2ncnc3[nH]c(-c4ccc(OC)cc4)cc23)c1")
"< 100 nM"
>>> valuemeasured("COc1ccc(-c2cc3c(Sc4ccc(F)c(Cl)c4)ncnc3[nH]2)cc1")
"< 100 nM"
>>> valuemeasured("C=CC(=O)Nc1cc(Nc2nccc(-c3cn(C)c4ccccc34)n2)c(OC)cc1N(C)CCN(C)CCOCCON(C)C(=O)N1N=C(c2cc(F)ccc2F)S[C@@]1(CCCN)c1ccccc1")
"50 to 500 nM"

---

pKd: −log10 of the molar value.
// cross-source set; read-out = pKd; system = Epidermal growth factor receptor (Homo sapiens)
recordedMetric: pKd

>>> valuemeasured("COc1ccc(Cn2c(-c3ccc(OC)cc3)cc3c(NCc4cccc(Cl)c4)ncnc32)cc1")
"5.00 to 6.00"
>>> valuemeasured("COc1cccc(Oc2ncnc3[nH]c(-c4ccc(O)cc4)cc23)c1")
"6.00 to 7.00"
>>> valuemeasured("COc1ccc(-c2cc3c(Oc4cccc(Cl)c4)ncnc3[nH]2)cc1")
"> 7.00"
>>> valuemeasured("Cc1cccc(Sc2ncnc3c2[nH]c2ccccc23)c1")
"6.00 to 7.00"
>>> valuemeasured("COc1cccc(CNc2ncnc3nc[nH]c23)c1")
"< 5.00"
>>> valuemeasured("C=CC(=O)Nc1cc(Nc2nccc(-c3cn(C)c4ccccc34)n2)c(OC)cc1N(C)CCN(C)CCOCCOCCOCCOCCOCCOCCOCCOCCON(C)C(=O)N1N=C(c2cc(F)ccc2F)SC1(CCCN)c1ccccc1 (stereo not drawn)")
"> 7.30"
>>> valuemeasured("C=CC(=O)Nc1cc(Nc2nccc(-c3cn(C)c4ccccc34)n2)c(OC)cc1N(C)CCN(C)CCOCCOCCOCCOCCOCCOCCNC(=O)c1ccc(Nc2ncc3c(n2)N(C2CCCC2)[C@H](CC)C(=O)N3C)c(OC)c1")
"5.60 to 6.30"
>>> valuemeasured("Oc1ccc(-c2cc3c(NCCc4ccccc4)ncnc3[nH]2)cc1")
"> 7.00"
>>> valuemeasured("COc1cccc(-c2cc3c(Sc4cc(Cl)cc(Cl)c4)ncnc3[nH]2)c1")
"< 5.00"
>>> valuemeasured("COc1ccc(-c2cc3c(Oc4cccc(C)c4)ncnc3[nH]2)cc1")
"> 7.00"
>>> valuemeasured("COc1ccc(-c2cc3c(NCCc4ccccc4)ncnc3[nH]2)cc1")
"6.00 to 7.00"
>>> valuemeasured("Clc1cccc(Nc2ncnc3[nH]cnc23)c1")
"< 5.00"
>>> valuemeasured("C=CC(=O)Nc1cccc(Nc2nc(Nc3ccc(N4CCN(CC)CC4)cc3)ncc2C(F)(F)F)c1")
7.82
>>> valuemeasured("Clc1cc(Cl)cc(Nc2ncnc3[nH]c(-c4ccc(Br)cc4)cc23)c1")
"5.00 to 6.00"
>>> valuemeasured("C=CC(=O)N[C@@H]1CN(c2nc(Nc3cn(CCOCCOCCOCCOCCOCCOCCNS(=O)(=O)c4ccc(Nc5ncc(Br)c(Nc6cccc(F)c6C(N)=O)n5)cc4)nc3OC)c3ncn(C)c3n2)C[C@H]1F")
"> 7.30"

---

pKd: −log10 of the molar value.
// cross-source set; read-out = pKd; system = Epidermal growth factor receptor (Homo sapiens, UniProt P00533)
recordedMetric: pKd

>>> valuemeasured("C=C(COc1cc(Cl)cc(NC(=O)NCc2ccc3c(c2)CN(C2CCC(=O)NC2=O)C3=O)c1)C(=O)Nc1cccc(Oc2nc(Nc3ccc(N4CCN(C)CC4)cc3)nc3ccsc23)c1 (stereo not shown)")
"< 5.60"
>>> valuemeasured("COc1cccc(-c2cc3c(NCc4cccc(Cl)c4)ncnc3[nH]2)c1")
"> 7.00"
>>> valuemeasured("COc1cccc(-c2cc3c(Sc4cccc(C(F)(F)F)c4)ncnc3[nH]2)c1")
"> 7.00"
>>> valuemeasured("CC[C@@H]1C(=O)N(C)c2cnc(Nc3ccc(C(=O)NCCOCCOCCOCCOCCN(C)C/C=C/C(=O)Nc4cc(Nc5nccc(-c6cn(C)c7ccccc67)n5)c(OC)cc4N(C)CCN(C)C)cc3OC)nc2N1C1CCCC1")
"< 5.60"

---

// cross-source set; read-out = Kd; system = Epidermal growth factor receptor (Homo sapiens, UniProt P00533)
recordedMetric: Kd

>>> valuemeasured("COc1ccc(-c2cc3c(Sc4cccc(C)c4)ncnc3[nH]2)cc1")
"100 to 1000 nM"
>>> valuemeasured("N#Cc1cnc2cc(OC[C@@H](O)CO)c(NC(=O)C[C@H]3CCSS3)cc2c1Nc1ccc(OCc2cccc(F)c2)c(Cl)c1")
"1 to 99 nM"
>>> valuemeasured("C=CC(=O)N[C@@H]1CN(c2nc(Nc3cn(CCOc4ccc(CNc5cc(N6CCCC[C@H]6CCO)nc6c(CC)cnn56)cn4)nc3OC)c3ncn(C)c3n2)C[C@H]1F")
"50 to 500 nM"
>>> valuemeasured("Oc1ccc(-c2cc3c(Sc4ccc(Cl)cc4)ncnc3[nH]2)cc1")
"< 100 nM"
>>> valuemeasured("COc1ccc(-c2cc3c(N[C@@H](C)c4ccccc4)ncnc3n2C)cc1")
"> 10000 nM"
>>> valuemeasured("C=CC(=O)Nc1cc(Nc2nccc(-c3cn(C)c4ccccc34)n2)c(OC)cc1N(C)CCN(C)CCOCCOCCOCCOCCOCCOCCNS(=O)(=O)c1ccc(Nc2ncc(Br)c(Nc3cccc(F)c3C(N)=O)n2)cc1")
"< 50 nM"
>>> valuemeasured("CC[C@@H]1C(=O)N(C)c2cnc(Nc3ccc(C(=O)NCCOCCOCCOCCOCCN(C)C/C=C/C(=O)N[C@@H]4CN(c5nc(Nc6cn(C)nc6OC)c6ncn(C)c6n5)C[C@H]4F)cc3OC)nc2N1C1CCCC1")
"500 to 2500 nM"
>>> valuemeasured("COc1cccc(-c2cc3c(Sc4cc(C)cc(C)c4)ncnc3[nH]2)c1")
"100 to 1000 nM"
>>> valuemeasured("C=CC(=O)N[C@@H]1CN(c2nc(Nc3cn(CCCN4CCN(CCCON(C)C(=O)N5N=C(c6cc(F)ccc6F)S[C@@]5(CCCN)c5ccccc5)CC4)nc3OC)c3ncn(C)c3n2)C[C@H]1F")
"< 50 nM"
>>> valuemeasured("COC(=O)C(Nc1ncnc2[nH]c(-c3ccc(OC)cc3)cc12)c1ccccc1 (stereo not shown)")
"100 to 1000 nM"
>>> valuemeasured("C=CC(=O)N[C@@H]1CN(c2nc(Nc3cn(CCOCCOCCOCCOCCON(C)C(=O)N4N=C(c5cc(F)ccc5F)SC4(CCCN)c4ccccc4)nc3OC)c3ncn(C)c3n2)C[C@H]1F (stereo partly shown)")
"< 50 nM"
>>> valuemeasured("C[C@H](Nc1ncnc2[nH]c(-c3ccc(O)cc3)cc12)c1ccccc1")
"1000 to 10000 nM"
>>> valuemeasured("COc1ccc(Cn2c(-c3ccc(OC)cc3)cc3c(Nc4cccc(F)c4)ncnc32)cc1")
"1000 to 10000 nM"
